PROCEDURE SUMMARY: 1-octanol/buffer distribution co-efficient, log D of compound at pH 7.4 at 298 K after 24 hrs by shake flask method
Assay type: physicochemical
Bucketed by reported logD at 24 h, buckets being lo = under 0.8, mid = from 0.8 up to 2, hi = 2 and over

The examples below pair each entry with its known result.
{"columns": ["MOLECULE", "ASSIGNED LABEL"],
 "data": [
  ["CC(Cc1nsc(Nc2ccc(F)cc2)n1)NC1CC(C)(C)NC(C)(C)C1 (stereo unspecified)", "mid"],
  ["Cc1cc(Nc2nc(CC(C)NC3CC(C)(C)NC(C)(C)C3)ns2)no1 (stereo unspecified)", "lo"],
  ["CC(Cc1nsc(Nc2ccc(F)c(Cl)c2)n1)NC1CC(C)(C)NC(C)(C)C1 (stereo unspecified)", "lo"],
  ["Cc1ccc(Nc2nc(CC(C)O)ns2)cc1 (stereo unspecified)", "hi"],
  ["Cc1cc(Nc2nc(CC(C)O)ns2)no1 (stereo unspecified)", "mid"],
  ["CC(O)Cc1nsc(Nc2ccc(F)c(Cl)c2)n1 (stereo unspecified)", "hi"]
]}

Query string: Tag the class for Cc1ccc(Cl)cc1Nc1nc(CC(C)NC2CC(C)(C)NC(C)(C)C2)ns1 (stereo unspecified)
Result string: mid

Query string: Band assignment needed for CC(Cc1nsc(Nc2ccc(Cl)cc2)n1)NC1CC(C)(C)NC(C)(C)C1 (stereo unspecified) please.
Result string: lo

Query string: For this molecule, which bin applies? COc1ccc(Nc2nc(CC(C)O)ns2)cc1 (stereo unspecified)
Result string: hi

Query string: Please classify: CC(O)Cc1nsc(Nc2ccc(F)cc2)n1 (stereo unspecified)
Result string: hi

* * *

PROCEDURE SUMMARY: 1-hexane/buffer partition co-efficient of compound in neutral form at pH 7.4 at 298 K after 24 hrs by shake flask method
Assay type: physicochemical
CONDITION: pH 7.4, 24 h
EXPERIMENTAL READOUT: K

Recorded K, per entry:
{"columns": ["MOLECULE", "K"],
 "data": [
  ["CC(O)Cc1nsc(Nc2ccc(Cl)cc2)n1 (stereo unspecified)", 0.46],
  ["CC(Cc1nsc(Nc2ccc(Br)cc2)n1)NC1CC(C)(C)NC(C)(C)C1 (stereo unspecified)", 85]
]}

Query string: Given the molecule CC(Cc1nsc(Nc2ccc(Cl)cc2)n1)NC1CC(C)(C)NC(C)(C)C1 (stereo unspecified) , what is its reported K?
Result string: 73

Query string: Dear colleague, I am looking for the recorded K of the following molecule: CC(O)Cc1nsc(Nc2ccc(F)c(Cl)c2)n1 (stereo unspecified)
Result string: 0.16

Query string: Return reported K; argument: CC(Cc1nsc(Nc2ccc(F)cc2)n1)NC1CC(C)(C)NC(C)(C)C1 (stereo unspecified)
Result string: 158

* * *

PROCEDURE SUMMARY: Permeability of compound at 5 mM using lipid layer at pH 7.4 at 298 K by spectrophotometric method
Type: ADME
CONDITION: not told
Each entry below lists one item and its recorded Papp at 5000 µM value.

{"columns": ["COMPOUND", "EXPERIMENTAL READOUT", "OBSERVED"],
 "data": [
  ["Cc1ccc(Cl)cc1Nc1nc(CC(C)NC2CC(C)(C)NC(C)(C)C2)ns1 (stereo unspecified)", "Papp at 5000 µM", "26.9 ×10⁻⁶ cm/s"]
]}

Query string: Tell me the measured Papp at 5000 µM of CC(Cc1nsc(Nc2ccc(Br)cc2)n1)NC1CC(C)(C)NC(C)(C)C1 (stereo unspecified) , please.
Result string: 9.5 ×10⁻⁶ cm/s
